Data credit: patent US20220064329A1

- subjectOfTest: T1, recombinant human activated Factor VII (FVIIa) (human, UniProt P08709 61-212; P08709 213-466, ten glutamate residues of the Gla domain may be gamma-carboxylated)
- T1 construct: chains tethered by a disulfide bond; also called Factor VIIa; rFVIIa
- T1 sequence 1: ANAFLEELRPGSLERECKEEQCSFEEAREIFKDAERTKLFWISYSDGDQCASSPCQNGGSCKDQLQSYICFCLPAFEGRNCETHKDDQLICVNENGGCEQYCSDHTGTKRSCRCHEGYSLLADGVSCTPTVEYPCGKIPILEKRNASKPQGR
- T1 sequence 2: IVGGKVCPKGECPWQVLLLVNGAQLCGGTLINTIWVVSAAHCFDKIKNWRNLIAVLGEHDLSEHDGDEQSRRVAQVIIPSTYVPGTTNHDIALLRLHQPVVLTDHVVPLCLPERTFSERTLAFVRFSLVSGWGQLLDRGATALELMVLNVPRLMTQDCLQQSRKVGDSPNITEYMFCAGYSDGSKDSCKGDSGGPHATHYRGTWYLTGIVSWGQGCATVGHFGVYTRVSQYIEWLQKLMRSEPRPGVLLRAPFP
- assayName: BLI (Fortebio)
pKd: −log10 of the molar value.
Reported pKd by item:
observable: pKd

VH SEQ ID NO 642 / VL SEQ ID NO 430 (antibody, IgG4, V domains shown, humanized 11F2; IgG4 S228P/kappa) VH: QVQLQESGPGLVKPSQTLSLTCTVSGYSISSDSAWSWIRQPPGKGLEWIGYIYYSGSTNYNPSLKSRVTISVDTSKNQFSLKLSSVTAADTAVYYCARSVNYYGNSFAVGYWGQGTSVTVSS VL: EIVLTQSPATLSLSPGERATLSCRASQGVSDYLAWYQQKPGQAPRLLIKYASQPATGIPARFSGSGSGTDFTLTISSLEPEDFGVYYCQNGHSFPLTFGQGTKLEIK = 6.27
VH SEQ ID NO 530 / VL SEQ ID NO 326 (antibody, IgG4, V domains shown, humanized 11F2; IgG4 S228P/kappa) VH: QVQLQESGPGLVEPSQTLSLTCTVSGYSISSDSAWSWIRQPPGKGLEWIGYIQYSGSTNYNPSLKSRVTISRDTSKNQFSLKLSSVTAADTAVYYCARSVNYYGNSFAVGYWGQGTLVTVSS VL: EIVLTQSPATLSLSPGERATLSCRASQGISDYLHWYQQKPGEAPRLLIKYTSQPATGIPARFSGSGSGTDFTLTISSLEPEDFGVYYCQNGHSFPLTFGAGTKLELK = 8.96
VH SEQ ID NO 586 / VL SEQ ID NO 486 (antibody, IgG4, V domains shown, humanized 11F2; IgG4 S228P/kappa) VH: QVQLQESGPGLVKPSDTLSLTCAVSGYSISSDSAWSWIRQPPGKGLEWIGYIQYSGSTNYNPSLKSRVTMSVDTSKNQFSLKLSSVTALDTAVYYCARSVNYYGNSFAVGYWGQGTLVTVSS VL: EIVLTQSPATLSLSPGERATLSCRASQGVSDYLHWYQQKPGQAPRLLIKYASQPATGIPARFSGSGSGTDFTLTISSLEPEDFGVYYCQNGHSFPLTFGQGTKLEIK = 7.74
